Tested on: Mia-PaCa2 pancreatic cancer cell line
Assay: In vitro antiproliferative activity, Mia-PaCa2 pancreatic cancer cell line
Format: cell-based
Conditions: Homo sapiens, MIA PaCa-2, Table 2
pIC50: −log10 of the molar value.
Please mark Fulfilled if the recorded pIC50 is equal to or greater than 5, and Not fulfilled if it falls below.

Examples with answers:
molecule | category-label
COc1ccc2c(c1)c1ccnc(-c3cccc4ccccc34)c1n2C [Compound 57] | Not fulfilled
COc1ccc2[nH]c3c(-c4cccc5c(F)cccc45)nccc3c2c1 [Compound 44] | Fulfilled
N#Cc1ccc2[nH]c3c(-c4cccc5ccccc45)nccc3c2c1 [Compound 53] | Not fulfilled
Cc1cccc2[nH]c3c(-c4cccc5ccccc45)nccc3c12 [Compound 43] | Fulfilled
Cn1c2ccccc2c2ccnc(-c3cccc4ccccc34)c21 [Compound 56] | Not fulfilled

API: above_or_equal(metric=pIC50, cutoff=5) for item c1ccc2c(-c3nccc4c3sc3ccccc34)cccc2c1 [Compound 50]
Not fulfilled

Request: COc1ccc2[nH]c3c(-c4cccc5c(Br)cccc45)nccc3c2c1 [Compound 45]
Fulfilled

====

Test system: Mia-PaCa2 pancreatic cancer cell line
Test: In vitro antiproliferative activity, Mia-PaCa2 pancreatic cancer cell line
Format: cell-based
Settings: Homo sapiens, MIA PaCa-2, Table 2
For each entry below, report its pIC50 value.
One number for each entry, as −log10 of the molar value.

molecule | pIC50
Brc1ccc2[nH]c3c(-c4cccc5ccccc45)nccc3c2c1 | 4.58
CNS(=O)(=O)Cc1ccc2[nH]c3c(-c4cccc5ccccc45)nccc3c2c1 | 6.24
COc1ccc2[nH]c3c(-c4cccc5ccccc45)ncc(-c4ccccc4)c3c2c1 | 5.44
c1ccc2c(-c3nccc4c3oc3ccccc34)cccc2c1 | 4.47
COc1cccc2c1[nH]c1c(-c3cccc4ccccc34)nccc12 | 4.50
Cc1ccc2[nH]c3c(-c4cccc5c(Br)cccc45)nccc3c2c1 | 4.38

For every item in the list below, what is its measured pIC50?
1. Clc1ccc2sc3c(-c4cccc5ccccc45)nccc3c2c1
2. CCOC(=O)c1cc2c([nH]c3ccc(OC)cc32)c(-c2cccc3ccccc23)n1

1. 4.87
2. 4.76
